test: Food-effect crossover bioavailability study, 600 mg fed vs fasted, healthy adult subjects (Example 2); format: in vivo, human; conditions: both sexes, human, plasma, po, 600 mg, 600 mg PO, fed (high-fat breakfast), mean, balanced data; read-out: AUC(tf)
readout_name: AUC (ng·h/mL)
Record the value in ng·h/mL, omitting the unit from your answer.

Challenge: Fill blank: measured AUC of the compound CC(C)(C)NC(=O)N[C@H](C(=O)N1C[C@H]2[C@@H]([C@H]1C(=O)NC(CC1CCC1)C(=O)C(N)=O)C2(C)C)C(C)(C)C (mixture of isomers) is ____.
Response given: 3660

---

assay: Phase 1 rising-single-dose pharmacokinetic study in healthy adult subjects (Example 1); format: in vivo, human; settings: human, plasma, po, 50 mg, single oral dose 50 mg, mean, n = 6; read-out: AUC(tf)
readout_name: AUC
Output should be the measured figure followed by the unit it is expressed in.

Challenge: Fill blank: measured AUC of the compound CC(C)(C)NC(=O)N[C@H](C(=O)N1C[C@H]2[C@@H]([C@H]1C(=O)NC(CC1CCC1)C(=O)C(N)=O)C2(C)C)C(C)(C)C (mixture of isomers) [Formula Ia] is ____.
Response given: 179 ng·h/mL
